Experimental Details: Relative transport rate as the ratio of transport rate to that of PEG 1000.
Format: ADME
Bridge positions count the residues as written; N and C are the ends. Square brackets hold non-standard residues; d marks the D form. Peptide text beside a SMILES is read from it. * marks the point of attachment. X2 = CC(=O)OC[C@@H]1O[C@@H](*)[C@@H](OC(C)=O)[C@@H](OC(C)=O)[C@H]1OC(C)=O; X1 = OC[C@@H]1O[C@@H](*)[C@@H](O)[C@@H](O)[C@H]1O; Mpa = O=C(O)CCS
Result Type: Ratio

NC(=O)CNC(=O)[C@H](CCCN=C(N)N)NC(=O)[C@@H]1CCCN1C(=O)[C@@H]1CSSCCC(=O)N[C@@H](Cc2ccc(O)cc2)C(=O)N[C@@H](Cc2ccccc2)C(=O)N[C@@H](CO[C@@H]2O[C@@H](CO)[C@H](O)[C@H](O)[C@@H]2O)C(=O)N[C@@H](CC(N)=O)C(=O)N1 ([Mpa]YFS(X1)NCPRG-NH2; disulfide 1-6)
0.96
NC(=O)CNC(=O)[C@@H](CCCN=C(N)N)NC(=O)[C@@H]1CCCN1C(=O)[C@@H]1CSSCCC(=O)N[C@H](Cc2ccc(O)cc2)C(=O)N[C@@H](Cc2ccccc2)C(=O)N[C@@H](CO)C(=O)N[C@@H](CC(N)=O)C(=O)N1
0.62
NC(=O)CC[C@@H]1NC(=O)[C@H](Cc2ccccc2)NC(=O)[C@H](Cc2ccc(O)cc2)NC(=O)CCSSC[C@@H](C(=O)N2CCC[C@H]2C(=O)N[C@H](CCCN=C(N)N)C(=O)NCC(N)=O)NC(=O)[C@H](CC(N)=O)NC1=O [DESMOPRESSIN]
0.57
CC(=O)OC[C@@H]1O[C@@H](OC[C@@H]2NC(=O)[C@H](Cc3ccccc3)NC(=O)[C@H](Cc3ccc(O)cc3)NC(=O)CCSSC[C@@H](C(=O)N3CCC[C@H]3C(=O)N[C@@H](CCCN=C(N)N)C(=O)NCC(N)=O)NC(=O)[C@H](CC(N)=O)NC2=O)[C@@H](OC(C)=O)[C@@H](OC(C)=O)[C@H]1OC(C)=O ([Mpa]YFS(X2)NCPRG-NH2; disulfide 1-6)
1.09
